Biological target: zebrafish mPRα (membrane progestin receptor alpha, Paqr7) (Danio rerio, UniProt Q801G2)
Sequence (Q801G2 1-354): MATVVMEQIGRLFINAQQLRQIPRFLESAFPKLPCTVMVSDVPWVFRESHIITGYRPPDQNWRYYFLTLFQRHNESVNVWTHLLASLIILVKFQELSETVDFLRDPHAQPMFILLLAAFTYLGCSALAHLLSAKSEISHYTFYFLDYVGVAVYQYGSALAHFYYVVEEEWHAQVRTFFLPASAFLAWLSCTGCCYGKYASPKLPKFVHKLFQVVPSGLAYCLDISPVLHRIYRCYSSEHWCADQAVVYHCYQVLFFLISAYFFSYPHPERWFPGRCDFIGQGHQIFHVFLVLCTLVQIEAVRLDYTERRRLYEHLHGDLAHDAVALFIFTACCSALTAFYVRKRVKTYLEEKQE

| molecule | IC50 [nM] |
| --- | --- |
| C=C[C@]12CCC(=O)C=C1CC[C@H]1[C@@H]3CC[C@H](C(C)=O)[C@@]3(C)CC[C@@H]12 [02–0, l0-ethenyl-l9-norprogesterone] | 2000 |
